# measurement-target: hOCT3 (organic cation transporter 3) (Homo sapiens)
# Sequence (O75751 whole entry): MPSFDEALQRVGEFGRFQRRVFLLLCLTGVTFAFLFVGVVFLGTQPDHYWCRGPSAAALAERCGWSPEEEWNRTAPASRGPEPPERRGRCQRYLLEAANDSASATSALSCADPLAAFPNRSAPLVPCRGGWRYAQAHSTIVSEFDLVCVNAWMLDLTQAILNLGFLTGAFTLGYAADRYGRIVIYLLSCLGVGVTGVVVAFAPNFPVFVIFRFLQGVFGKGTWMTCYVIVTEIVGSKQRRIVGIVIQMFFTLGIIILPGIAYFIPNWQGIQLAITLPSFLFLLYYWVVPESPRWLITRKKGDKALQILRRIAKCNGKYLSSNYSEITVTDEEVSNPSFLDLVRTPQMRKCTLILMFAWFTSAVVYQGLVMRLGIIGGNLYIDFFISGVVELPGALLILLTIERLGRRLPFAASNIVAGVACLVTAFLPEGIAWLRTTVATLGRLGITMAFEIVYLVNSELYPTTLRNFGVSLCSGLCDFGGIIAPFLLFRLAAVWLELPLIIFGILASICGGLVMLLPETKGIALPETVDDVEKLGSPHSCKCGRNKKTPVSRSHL
# test: inhibition of […]FEtQ uptake in HEK293 cells stably expressing hOCT3
pIC50: −log10 of the molar value.
assay-metric: pIC50

Query :: Please give measured pIC50 of the following entry: C[C@]12C[C@H](O)[C@H]3[C@@H](CCC4=CC(=O)CC[C@@]43C)[C@@H]1CC[C@@H]2C(=O)CO [corticosterone]
Result :: 6.30 to 7.30

###

# measurement-target: UniProt:O75751
# test: radioligand saturation binding/uptake in intact HEK293-hOCT3 cells, empty-vector cells as non-specific binding
assay-metric: pKd
Give bare numbers, as −log10 of the molar value.

Query :: Report pKd for FCC[n+]1cccc2ccccc21 [[18F]FEtQ]
Result :: 3.67
